# experimental-protocol: chemical genetic growth profiling, strain panel (AID 1159580);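 note: tested at 20 µM; growth read once vehicle control cultures reached saturation at 30 °C; 1 = growth at the plate median or of vehicle wells; lower values mean less growth of the strain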
# details: S. cerevisiae deletion strains, growth OD, locus YDR392W, strain spt3, stronger effect = lower value
Screen size: about 5,500 compounds; about 2,000 (36%) were called active. About 18% were inconclusive and are not listed. The list shows a part of the results.
Please use 1 for normalized growth under 0.9 and 0 for everything else, ties included.

compound | label
COc1cccc2c1cc([N+](=O)[O-])c1c(C(=O)O)cc3c(c12)OCO3 | 0
COc1ccc(-c2coc3cc(OC(C)=O)cc(OC(C)=O)c3c2=O)cc1 | 1
CC[N+]1(C)CCCC(OC(=O)C(O)(c2ccccc2)c2ccccc2)C1 (centres undefined) | 0
CC(=O)OCC(=O)[C@H]1CCC2C3CC=C4C[C@@H](O)CC[C@]4(C)C3CC[C@@]21C (some centres undefined) | 1

Task: Regarding Cn1c(=O)c2[nH]c(C3CCCC3)nc2n(C)c1=O , kindly confirm whether its normalized growth is beneath 0.9.
Output: 1

Task: Regarding CC(C)Oc1ccc2c(=O)cc(-c3ccccc3)oc2c1 , kindly confirm whether its normalized growth is beneath 0.9.
Output: 1

Task: Regarding Nc1ccc(C(=O)O)c(O)c1 , kindly confirm whether its normalized growth is beneath 0.9.
Output: 0

Task: Regarding CCN(CC)CCNc1ccc(CO)c2sc3ccccc3c(=O)c12 , kindly confirm whether its normalized growth is beneath 0.9.
Output: 0

Task: Regarding CN(C)C(=O)Oc1cc(OC(=O)N(C)C)cc(C(O)CNC(C)(C)C)c1 (centres undefined) , kindly confirm whether its normalized growth is beneath 0.9.
Output: 0

Task: Regarding CC(=O)OCC(=O)[C@@]1(O)CCC2C3CC[C@@H]4C[C@H](O)CC[C@]4(C)C3C(=O)C[C@@]21C (some centres undefined) , kindly confirm whether its normalized growth is beneath 0.9.
Output: 0

====

Kindly state normalized growth for each of the entries shown.
# experimental-protocol: chemical genetic growth profiling, strain panel (AID 1159580);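 note: tested at 20 µM; growth read once vehicle control cultures reached saturation at 30 °C; 1 = growth at the plate median or of vehicle wells; lower values mean less growth of the strain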
# details: S. cerevisiae deletion strains, growth OD, locus YER015W, strain faa2, stronger effect = lower value
In all, about 5,500 compounds went through this assay and about 2,000 (36%) were called active. About 18% were inconclusive and are not listed. The list shows a part of the results.
One number for each entry.

These solved cases illustrate the format of a correct answer.
molecule | measured-result
O=C(O)c1cn(-c2ccc(F)cc2)c2cc(N3CCNCC3)c(F)cc2c1=O | 0.983
CC(=O)CC(c1ccccc1)c1c(O)c2ccccc2oc1=O (stereo not drawn) | 0.987
CC1(C)O[C@@H]2CC3C4C[C@H](F)C5=CC(=O)C=C[C@]5(C)[C@@]4(F)[C@@H](O)C[C@]3(C)[C@]2(C(=O)CO)O1 (stereo partly drawn) | 1.01
[N-]=[N+]=CC(=O)OCC(N)C(=O)O (stereo not drawn) | 1.01
NCCc1ccc(O)c(O)c1 | 1.02
NCC(=O)CCC(=O)O | 0.996
FC(F)(F)C(Cl)Br (stereo not drawn) | 1.02
O=c1c(-c2ccccc2)coc2cc(O)cc(O)c12 | 0.979

Return reported normalized growth values for all items listed beneath this line.
1. C/C(=C\C(=O)OCCCCCCCCC(=O)O)C[C@@H]1OC[C@H](C[C@@H]2O[C@H]2[C@@H](C)[C@H](C)O)[C@@H](O)[C@H]1O
2. Nc1ccc(C(=O)O)c(O)c1
3. CC(=O)O[C@@H]1CC2C(C)(C)C(=O)CC[C@]2(C)C2CC[C@@]3(C)[C@H](c4ccoc4)OC(=O)C4OC43[C@@]21C (stereo partly drawn)
4. COc1cccc2c1cc([N+](=O)[O-])c1c(C(=O)O)cc3c(c12)OCO3
5. CC(=O)O[C@@H]1CC2C(C)(C)CCC(=O)[C@]2(C)C2CC[C@@]3(C)[C@H](c4ccoc4)OC(=O)C4OC43[C@@]21C (stereo partly drawn)
6. C=CCc1ccccc1OCC(O)CNC(C)C (stereo not drawn)

Output:
0.99
0.999
1
1.02
1
0.995

# credit: PubChem BioAssay AID1159580
